Test system: rodent carcinogenicity bioassays, tumor incidence
measurement.notes: CCRIS carcinogenicity studies
protocol.conditions: Species: MOUSE; Strain/Sex: SWISS/FEMALE; Route: INTRAPERITONEAL; Dose: 0; 1.05 UMOL GIVEN AS 150 NMOL IN 5 µL DMSO WITHIN 24 HR OF BIRTH, 300 NMOL IN 10 µL DMSO ON D 8 OF LIFE, AND 600 NMOL I; Tumor Site: Type of Lesion: LUNG: ADENOMA
Activity calls are given as the source filed them. No rule for the calls is given here.
test.readout: carcinogen call

INSERT INTO measurements (molecule, system, experimental_value) VALUES
  ('O[C@H]1C=Cc2cc3ccc4ccccc4c3nc2[C@@H]1O', 'rodent carcinogenicity bioassays, tumor incidence', 'active; positive'),
  ('c1ccc2nc3c(ccc4ccccc43)cc2c1', 'rodent carcinogenicity bioassays, tumor incidence', 'active; positive'),
  ('O[C@@H]1C=Cc2c(ccc3cc4ccccc4nc23)[C@H]1O', 'rodent carcinogenicity bioassays, tumor incidence', 'active; positive'),
  ('OC1c2ccc3cc4ccccc4nc3c2C2OC2C1O (stereo unspecified)', 'rodent carcinogenicity bioassays, tumor incidence', 'active; positive'),
  ('c1ccc2nc3c(cc2c1)c1c(c2ccccc23)O1', 'rodent carcinogenicity bioassays, tumor incidence', 'active; positive'),
  ('O[C@H]1C=Cc2nc3c(ccc4ccccc43)cc2[C@@H]1O', 'rodent carcinogenicity bioassays, tumor incidence', 'active; positive');

====

Test system: rodent carcinogenicity bioassays, tumor incidence
measurement.notes: CCRIS carcinogenicity studies
protocol.conditions: Species: RAT; Route: SUBCUTANEOUS; Tumor Site: Type of Lesion: INJECTION SITE
Activity calls are given as the source filed them. No rule for the calls is given here.
test.readout: carcinogen call

INSERT INTO assay_data (molecule, system, test_readout, experimental_value) VALUES
  ('CC1CC(=O)O1 (stereo not drawn)', 'rodent carcinogenicity bioassays, tumor incidence', 'carcinogen call', 'active; positive'),
  ('O=C1CCO1', 'rodent carcinogenicity bioassays, tumor incidence', 'carcinogen call', 'active; positive'),
  ('CCOS(=O)(=O)OCC', 'rodent carcinogenicity bioassays, tumor incidence', 'carcinogen call', 'active; positive'),
  ('COS(=O)(=O)OC', 'rodent carcinogenicity bioassays, tumor incidence', 'carcinogen call', 'active; positive'),
  ('CCN(Cc1cccc(S(=O)(=O)O)c1)c1ccc(C(=C2C=CC(=[N+](CC)Cc3cccc(S(=O)(=O)O)c3)C=C2)c2ccccc2S(=O)(=O)[O-])cc1', 'rodent carcinogenicity bioassays, tumor incidence', 'carcinogen call', 'active; positive'),
  ('COc1cc2c(c3oc4cccc(O)c4c(=O)c13)[C@@H]1C=CO[C@@H]1O2', 'rodent carcinogenicity bioassays, tumor incidence', 'carcinogen call', 'active; positive'),
  ('CC1CO1 (stereo not drawn)', 'rodent carcinogenicity bioassays, tumor incidence', 'carcinogen call', 'active; positive'),
  ('CCN(Cc1cccc(S(=O)(=O)[O-])c1)c1ccc(C(=C2C=CC(=[N+](C)C)C=C2)c2ccc(N(CC)Cc3cccc(S(=O)(=O)O)c3)cc2)cc1', 'rodent carcinogenicity bioassays, tumor incidence', 'carcinogen call', 'active; positive'),
  ('c1ccc2c(c1)cc1ccc3cccc4ccc2c1c34', 'rodent carcinogenicity bioassays, tumor incidence', 'carcinogen call', 'active; positive'),
  ('ClCc1ccccc1', 'rodent carcinogenicity bioassays, tumor incidence', 'carcinogen call', 'active; positive'),
  ('CN(C)c1ccc(C(=N)c2ccc(N(C)C)cc2)cc1', 'rodent carcinogenicity bioassays, tumor incidence', 'carcinogen call', 'active; positive'),
  ('CI', 'rodent carcinogenicity bioassays, tumor incidence', 'carcinogen call', 'active; positive'),
  ('C1OC1C1CO1 (stereo not drawn)', 'rodent carcinogenicity bioassays, tumor incidence', 'carcinogen call', 'active; positive');
